molecular target: Carboanhydrase IX (Homo sapiens, UniProt Q16790 38-459); assay: cell-based or functional assay
quantity-name: MIAPaCa 2/CA9+ IC50 (nM)
// return numeric value only (unit: nM, not printed)

binder	MIAPaCa 2/CA9+ IC50 / nM
Example 304 (antibody, human IgG1, kappa, V domains shown, linker-toxophore on cysteine S) VH: QVELVESGGGLVQPGGSLRLSCAASGFTFSSYGMSWVRQAPGKGLEWVSGISSLGSTTYYADSVKGRFTISRDNSKNTLYLQMNSLRAEDTAVYYCARTGSPGTFMHGDHWGQGTLVTVSS VL: DIQMTQSPSSLSASVGDRVTITCRASQDINNYLSWYQQKPGKAPKLLIYGASNLQSGVPSRFSGSGSGTDFTLTISSLQPEDFAVYYCQQYYGRPTTFGQGTKVEIKR	0.019
Example 289 (antibody, human IgG1, kappa, V domains shown, linker-toxophore on cysteine S) VH: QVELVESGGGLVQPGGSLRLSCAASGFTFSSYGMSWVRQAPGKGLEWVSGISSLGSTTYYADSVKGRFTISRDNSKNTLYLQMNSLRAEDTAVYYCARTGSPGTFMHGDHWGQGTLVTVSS VL: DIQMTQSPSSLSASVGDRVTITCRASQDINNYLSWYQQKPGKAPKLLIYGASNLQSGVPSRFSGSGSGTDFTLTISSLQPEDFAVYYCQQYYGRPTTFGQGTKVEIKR	78

For the binder Example 291 (antibody, human IgG1, kappa, V domains shown, linker-toxophore on cysteine S) VH: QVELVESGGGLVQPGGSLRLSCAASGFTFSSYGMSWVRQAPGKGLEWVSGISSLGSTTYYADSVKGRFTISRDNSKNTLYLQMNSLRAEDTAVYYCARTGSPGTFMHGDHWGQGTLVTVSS VL: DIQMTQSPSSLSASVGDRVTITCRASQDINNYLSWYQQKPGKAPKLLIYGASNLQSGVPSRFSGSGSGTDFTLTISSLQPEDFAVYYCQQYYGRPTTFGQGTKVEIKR , what MIAPaCa 2/CA9+ IC50 is on record? 22
